Hello, the source for this data is PubChem BioAssay (NCATS), in case you need it.

test: Confirmation and Secondary Assay for Modulators of Hemoglobin Beta Chain Splicing at IVS2 705 locus (AID 930); conditions: HeLa EGFP-705 splicing reporter, GFP fluorescence, 48 h; series mostly up to 46.1 µM;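 note: HeLa cells stably expressing the EGFP-705 splicing reporter; GFP fluorescence per well restored by corrected splicing of the IVS2-705 intron in EGFP; % of control where 0% means no effect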
Calls of active or inactive are those of the source. Calls come from the whole dose curve; as a rule, active = well fitted activation curve with a large enough effect; inconclusive = small, poorly fitted or top-dose-only effect; inactive = flat fitted curve, though single readings scatter.
Experimental readout: outcome

Worked examples, 8 compounds total:
[
  {
    "Compound": "C[C@@]12C=CC(=O)C=C1CCC1C2CC[C@]2(C)C(=O)CCC12 (some centres undefined)",
    "Result value": "inactive"
  },
  {
    "Compound": "CC(=O)Oc1ccc(/C=C/c2cc(OC(C)=O)cc(OC(C)=O)c2)cc1",
    "Result value": "inactive"
  },
  {
    "Compound": "CN(C)C1C(=O)C(C(N)=O)=C(O)[C@@]2(O)C(=O)C3=C(O)c4c(O)cccc4[C@](C)(O)C3C(O)C12 (some centres undefined)",
    "Result value": "inactive"
  },
  {
    "Compound": "CC1CC[C@@]2(NC1)OC1CC3C4CC[C@@H]5CC(O)CC[C@@]5(C)C4CC[C@]3(C)C1C2C (some centres undefined)",
    "Result value": "inactive"
  },
  {
    "Compound": "C=CCN1CC[C@]23c4c5ccc(O)c4OC2C(=O)CC[C@]3(O)C1C5 (some centres undefined)",
    "Result value": "inactive"
  },
  {
    "Compound": "NCC(N)C(=O)c1ccccc1 (centres undefined)",
    "Result value": "inactive"
  },
  {
    "Compound": "CC1=C(O)C(=O)C=C2C1=CC=C1[C@]2(C)CC[C@@]2(C)C3C[C@](C)(C(=O)O)CC[C@@]3(C)CC[C@@]12C (some centres undefined)",
    "Result value": "inactive"
  },
  {
    "Compound": "CCC(C)C(=O)OC1C[C@@]2(C)C(c3ccoc3)OC(=O)CC23OC2(C)OC34C(OC(=O)C(C)C)[C@]3(O)C(OC(=O)C5(C)OC5C)[C@]5(C)CC3(O)[C@](C)(C5CC(=O)OC)C14O2 (some centres undefined)",
    "Result value": "inactive"
  }
]

[ask] Give the reported value of outcome for this record: COc1ccc2c(c1O)-c1c(OC)c(OC)cc3c1[C@@H](C2)N(C)CC3
[reply] inactive

###

molecular target: Retinoic acid receptor RXR-alpha (Homo sapiens) (UniProt P19793); assay: qHTS assay for small molecule antagonists of retinoid X receptor alpha signaling (AID 588546); details: HEK293T RXRa-UAS-bla, beta-lactamase ratio, antagonist mode;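 note: cells stimulated with 9-cis-retinoic acid as agonist; % is set by controls: 0 for no effect and ±100 for the full control effect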
Sequence (P19793 whole entry, looked up): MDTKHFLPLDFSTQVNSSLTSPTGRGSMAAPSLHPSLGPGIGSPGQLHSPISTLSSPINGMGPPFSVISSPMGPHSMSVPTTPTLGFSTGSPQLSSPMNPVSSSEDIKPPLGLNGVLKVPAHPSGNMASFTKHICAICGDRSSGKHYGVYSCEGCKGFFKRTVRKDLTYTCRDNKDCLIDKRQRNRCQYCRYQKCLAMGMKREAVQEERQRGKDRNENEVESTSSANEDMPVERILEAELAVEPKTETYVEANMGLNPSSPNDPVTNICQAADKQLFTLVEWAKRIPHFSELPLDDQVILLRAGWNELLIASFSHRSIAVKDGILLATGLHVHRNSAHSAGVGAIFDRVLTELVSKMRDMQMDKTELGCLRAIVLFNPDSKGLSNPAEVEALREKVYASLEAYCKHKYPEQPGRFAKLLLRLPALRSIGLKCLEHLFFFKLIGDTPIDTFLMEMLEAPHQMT
Records with an inconclusive call do not appear.
Record form. Attribute: max response. Fill in for each entry.
Answers are plain numbers, in %.

[
  {
    "Compound": "CCOP(=S)(OCC)OC(Cl)C(Cl)(Cl)Cl (stereo not given)",
    "Tested system": "Retinoic acid receptor RXR-alpha (Homo sapiens) (UniProt P19793)",
    "Unit text": "%",
    "max response": -15
  },
  {
    "Compound": "COC(=O)c1sccc1S(=O)(=O)NC(=O)Nc1nc(C)nc(OC)n1",
    "Tested system": "Retinoic acid receptor RXR-alpha (Homo sapiens) (UniProt P19793)",
    "Unit text": "%",
    "max response": -14.7
  },
  {
    "Compound": "O=C(O)C(F)(F)C(F)(F)C(F)(F)C(F)(F)C(F)(F)C(F)(F)C(F)(F)C(F)(F)C(F)(F)F",
    "Tested system": "Retinoic acid receptor RXR-alpha (Homo sapiens) (UniProt P19793)",
    "Unit text": "%",
    "max response": 20.8
  },
  {
    "Compound": "CC(Oc1ccc(Cl)cc1Cl)C(=O)O (stereo not given)",
    "Tested system": "Retinoic acid receptor RXR-alpha (Homo sapiens) (UniProt P19793)",
    "Unit text": "%",
    "max response": 1.72
  },
  {
    "Compound": "CCOC1Oc2ccc(OS(C)(=O)=O)cc2C1(C)C (stereo not given)",
    "Tested system": "Retinoic acid receptor RXR-alpha (Homo sapiens) (UniProt P19793)",
    "Unit text": "%",
    "max response": -7.44
  }
]

Below are 4 compounds. Give each one its max response.
1. CC(C)=CC1[C@H](C(=O)OCc2cccc(Oc3ccccc3)c2)C1(C)C (stereo not given in full)
2. NS(=O)(=O)C(F)(F)C(F)(F)C(F)(F)C(F)(F)C(F)(F)C(F)(F)C(F)(F)C(F)(F)F
3. CCOC(=O)C(Cl)Cc1cc(-n2nc(C)n(C(F)F)c2=O)c(F)cc1Cl (stereo not given)
4. CC(C)C1(C)N=C(c2nc3ccccc3cc2C(=O)O)NC1=O (stereo not given)

[reply]
3.36
-55.1
-48.3
4.25

[ask] Give the reported value of max response for this record: C=CCOC(=O)C(C)(C)OC(=O)c1cc(-n2c(=O)cc(C(F)(F)F)n(C)c2=O)ccc1Cl
[reply] 23.7

###

target: Nuclear receptor ROR-gamma (Homo sapiens) (UniProt P51449); experiment: qHTS assay for small molecule antagonists of the retinoid-related orphan receptor gamma (ROR-gamma) signaling pathway (AID 651802); conditions: ROR-gamma antagonist cell reporter assay; series mostly up to 92.2 µM; note: nearly all actives have a fitted effect of over 60% in size
Sequence (P51449 whole entry, looked up): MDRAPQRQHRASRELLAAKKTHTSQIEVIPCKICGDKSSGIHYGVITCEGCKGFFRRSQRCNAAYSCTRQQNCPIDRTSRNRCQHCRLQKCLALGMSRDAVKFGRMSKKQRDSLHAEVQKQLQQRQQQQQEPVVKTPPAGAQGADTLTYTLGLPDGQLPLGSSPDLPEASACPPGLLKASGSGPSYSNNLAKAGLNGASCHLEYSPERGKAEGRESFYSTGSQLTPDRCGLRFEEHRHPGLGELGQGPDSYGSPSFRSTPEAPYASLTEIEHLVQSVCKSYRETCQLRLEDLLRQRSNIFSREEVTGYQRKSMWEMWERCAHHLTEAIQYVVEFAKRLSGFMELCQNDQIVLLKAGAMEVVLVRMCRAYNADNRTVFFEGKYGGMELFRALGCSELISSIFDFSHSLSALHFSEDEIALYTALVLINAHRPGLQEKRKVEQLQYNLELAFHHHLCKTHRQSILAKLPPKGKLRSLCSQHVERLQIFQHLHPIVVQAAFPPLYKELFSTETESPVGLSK
Records with an inconclusive call do not appear. The source made the active and inactive calls. The call rests on the fitted dose curve; in most records, active means well fitted inhibition curve with a large enough effect; inconclusive means small, poorly fitted or top-dose-only effect; inactive means no such curve, though single readings can be large or run the other way.
Pick one: active, inactive

Some solved cases for reference:
[
  {
    "Molecule": "c1c[nH]cn1",
    "Label class": "inactive"
  },
  {
    "Molecule": "[O-][N+](=Nc1ccccc1)c1ccccc1",
    "Label class": "inactive"
  },
  {
    "Molecule": "FC(F)(F)c1ccc(Cl)cc1",
    "Label class": "inactive"
  },
  {
    "Molecule": "N#CC(Cl)Cl",
    "Label class": "active"
  },
  {
    "Molecule": "O=Nc1ccc(Nc2ccccc2)cc1",
    "Label class": "active"
  }
]

[ask] I would be grateful if you could indicate the recorded call for Cc1cc(C)c(N)cc1C .
[reply] inactive

[ask] I would be grateful if you could indicate the recorded call for CCCCCCCCn1sccc1=O .
[reply] active

[ask] I would be grateful if you could indicate the recorded call for CN(C)CCCCCCN(C)C .
[reply] inactive

[ask] I would be grateful if you could indicate the recorded call for c1ccc2c(c1)ccc1ncccc12 .
[reply] inactive

[ask] I would be grateful if you could indicate the recorded call for O=C(O)C1C(C(=O)O)C2(Cl)C(Cl)=C(Cl)C1(Cl)C2(Cl)Cl (stereo not given) .
[reply] inactive

###

biological target: Pyruvate kinase PKM (Homo sapiens) (UniProt P14618); assay: qHTS Assay for Activators of Human Muscle Pyruvate Kinase (AID 954); conditions: purified human muscle pyruvate kinase, luciferase-coupled luminescence, 1 h; series mostly up to 57.5 µM;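 note: 0% = uninhibited enzyme and -100% = no enzyme or full thiadiazolimine inhibition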
Sequence (P14618 whole entry, looked up): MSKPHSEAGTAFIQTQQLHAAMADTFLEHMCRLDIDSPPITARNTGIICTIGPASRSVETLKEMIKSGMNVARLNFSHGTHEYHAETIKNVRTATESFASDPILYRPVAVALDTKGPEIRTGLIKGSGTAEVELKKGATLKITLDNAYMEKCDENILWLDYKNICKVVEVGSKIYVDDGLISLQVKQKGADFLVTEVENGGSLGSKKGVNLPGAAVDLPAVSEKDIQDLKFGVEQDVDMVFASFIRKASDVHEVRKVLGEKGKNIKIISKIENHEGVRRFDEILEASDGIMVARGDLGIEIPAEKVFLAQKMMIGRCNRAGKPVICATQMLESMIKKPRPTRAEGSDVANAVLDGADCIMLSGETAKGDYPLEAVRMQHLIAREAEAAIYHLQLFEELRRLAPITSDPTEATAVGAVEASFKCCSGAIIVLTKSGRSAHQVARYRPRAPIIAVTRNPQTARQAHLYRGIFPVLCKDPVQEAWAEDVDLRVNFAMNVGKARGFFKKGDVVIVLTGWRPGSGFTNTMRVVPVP
Activity calls are given as the source filed them. Calls follow the shape of the dose curve; as a rule, active = well fitted curve in the direction sought with a large enough effect (not every such curve was filed as active); inconclusive = small, poorly fitted or top-dose-only effect, or effect the other way, or another doubt; inactive = no such curve, though single readings can be large or run the other way.

[
  {
    "Smiles repr": "C[N+]1(C)CCO[C@@](O)(c2ccc(-c3ccc([C@]4(O)C[N+](C)(C)CCO4)cc3)cc2)C1",
    "Tested system": "Pyruvate kinase PKM (Homo sapiens) (UniProt P14618)",
    "outcome": "inactive"
  },
  {
    "Smiles repr": "C[C@]1(C(=O)O)[C@@H]2CC[C@@H](O2)[C@@]1(C)C(=O)O",
    "Tested system": "Pyruvate kinase PKM (Homo sapiens) (UniProt P14618)",
    "outcome": "inactive"
  },
  {
    "Smiles repr": "COC[C@H]1OC(=O)c2coc3c2[C@@]1(C)C1=C(C3=O)[C@H]2CCC(=O)[C@@]2(C)C[C@H]1OC(C)=O",
    "Tested system": "Pyruvate kinase PKM (Homo sapiens) (UniProt P14618)",
    "outcome": "inactive"
  },
  {
    "Smiles repr": "C[C@@H]1O[C@@H](O[C@H]2C[C@@H](O)[C@]3(CO)[C@@H]4[C@@H](O)C[C@]5(C)[C@H](C6=CC(=O)OC6)CC[C@@]5(O)[C@H]4CC[C@@]3(O)C2)[C@H](O)[C@H](O)[C@@H]1O",
    "Tested system": "Pyruvate kinase PKM (Homo sapiens) (UniProt P14618)",
    "outcome": "inactive"
  }
]

###

experiment: Cellular Toxicity (caspase-3) Mesangial (AID 660); details: mesangial cells; caspase-3 activation; series mostly up to 91.7 µM;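 note: combined caspase 3 and 7 activity read by Caspase-Glo luminescence; cells exposed to compound for 16 h before the caspase read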
Calls of active or inactive are those of the source. Calls come from the whole dose curve; as a rule, active = well fitted activation curve with a large enough effect; inconclusive = small, poorly fitted or top-dose-only effect; inactive = flat fitted curve, though single readings scatter.
Pick one: 1 = active, 0 = inactive

Some solved cases for reference:
[
  {
    "Molecule": "OC(c1ccc(Cl)cc1)(c1ccc(Cl)cc1)C(Cl)(Cl)Cl",
    "Label class": 0
  },
  {
    "Molecule": "CN(C)c1ccc(N=O)cc1",
    "Label class": 0
  },
  {
    "Molecule": "O=C(CCl)c1ccccc1",
    "Label class": 0
  },
  {
    "Molecule": "Clc1ccc(C(c2ccc(Cl)cc2)C(Cl)Cl)cc1",
    "Label class": 1
  }
]

[ask] I would be grateful if you could indicate the recorded call for O=[N+]([O-])c1cc(C(F)(F)F)cc([N+](=O)[O-])c1Cl .
[reply] 0

[ask] I would be grateful if you could indicate the recorded call for C[C@@H]1CC[C@@]2(OC1)O[C@H]1[C@@H](O)[C@H]3[C@@H]4CC[C@H]5C[C@@H](O[C@@H]6O[C@H](CO)[C@H](O[C@@H]7O[C@H](CO)[C@@H](O)[C@H](O[C@@H]8OC[C@@H](O)[C@H](O)[C@H]8O)[C@H]7O[C@@H]7O[C@H](CO)[C@@H](O)[C@H](O[C@@H]8O[C@H](CO)[C@@H](O)[C@H](O)[C@H]8O)[C@H]7O)[C@H](O)[C@H]6O)[C@H](O)C[C@]5(C)[C@H]4CC[C@]3(C)[C@H]1[C@@H]2C .
[reply] 0

[ask] I would be grateful if you could indicate the recorded call for O=C(O)C1C(C(=O)O)C2(Cl)C(Cl)=C(Cl)C1(Cl)C2(Cl)Cl (stereo not drawn) .
[reply] 0

[ask] I would be grateful if you could indicate the recorded call for Oc1c(Br)c(Br)c(Br)c(Br)c1Br .
[reply] 0
